Assay: Primary qHTS for delayed death inhibitors of the malarial parasite plastid, 48 hour incubation
Details: P. falciparum luciferase growth in erythrocytes; series mostly up to 28.7 µM
Text: The goal of this screen is to discover new antimalarial compounds that act by inhibiting the development of the apicoplast in the malarial parasite Plasmodium falciparum. […] We have developed a cell-based assay that measures parasite growth based on the expression of an integrated copy of a firefly luciferase reporter. […] Growth inhibition is detected by a decrease in luciferase activity. […]
Among all 310,000 compounds or so, about 18,000 (5.8%) were called active. Not shown: some 22% with an inconclusive outcome. Calls follow the shape of the dose curve; as a rule, active = well fitted inhibition curve with a large enough effect; inconclusive = small, poorly fitted or top-dose-only effect, or another doubt; inactive = no such curve, though single readings can be large or run the other way. For the sample, actives were picked, then their nearest neighbours and some compounds at random.
Your reply should match one of these outcome classes. Yes for active, No for inactive

Illustrative cases are given below, each with its answer.
Smiles Text: O=C(NCCCN1CCCC1=O)c1cccc(S(=O)(=O)NCc2ccccc2)c1
Assigned Category: No

Smiles Text: CCCNC(=O)c1onc(CSc2ccc(F)cc2)c1C(=O)NC(C)C
Assigned Category: Yes

Smiles Text: O=C(NCCc1ccc(Cl)cc1)c1cccc(N2CCCC2=O)c1
Assigned Category: No

IN: Entry Cc1cccc(C)c1NC(=O)C1(N(C(=O)c2ccccn2)c2ccc(O)cc2)CCCCC1 : call = ?
OUT: No

IN: Next up: O=C(CN(C(=O)CNC(=O)c1cccs1)c1cccc(F)c1)NC1CCCCC1
OUT: No
